# procedure-summary: Cytotoxicity against african green monkey Vero cells assessed as drug level causing microscopically detectable alteration of normal cell morphology after 3 days
# Assay type: cell-based
# test-context: chlorocebus sabaeus
Overview of reported MCC at 72 h across a group of molecules:

molecule	MCC at 72 h, µM
Cc1cc(C)cc(S(=O)(=O)c2c(C(=O)NCC(N)=O)[nH]c3ccc(Br)cc23)c1	100
Cc1cc(C)cc(S(=O)(=O)c2c(C(=O)NC(C)C(N)=O)[nH]c3ccc(Br)cc23)c1 (centres undefined)	20
Cc1cc(C)cc(S(=O)(=O)c2c(C(=O)NCCS(N)(=O)=O)[nH]c3ccc(Cl)cc23)c1	100
Cc1cc(C)cc(S(=O)(=O)c2c(C(=O)NCCC(N)=O)[nH]c3ccc(Cl)cc23)c1	100
Cc1cc(C)cc(S(=O)(=O)c2c(C(=O)NCCS(N)(=O)=O)[nH]c3ccc(Cl)c(F)c23)c1	100
Cc1cc(C)cc(S(=O)(=O)c2c(C(=O)NCCS(N)(=O)=O)[nH]c3ccc([N+](=O)[O-])cc23)c1	100

###

# target-under-test: Human immunodeficiency virus type 1 reverse transcriptase (Human immunodeficiency virus 1, UniProt Q72547, L100I)
# procedure-summary: Inhibition of HIV1 reverse transcriptase p66/p51 L100I mutant
# test-context: read-out: IC50
pIC50: −log10 of the molar value.
Threshold check on pIC50: at or above 7 gives 1.0, strictly below gives 0.0.

compound	category
Cc1cc(C)cc(S(=O)(=O)c2c(C(=O)NC(C)C(N)=O)[nH]c3ccc([N+](=O)[O-])cc23)c1 (centres undefined)	0.0
Cc1cc(C)cc(S(=O)(=O)c2c(C(=O)NC(C)CC(N)=O)[nH]c3ccc(Cl)cc23)c1 (centres undefined)	0.0
Cc1cc(C)cc(S(=O)(=O)c2c(C(=O)NCC(N)=O)[nH]c3ccc(Br)cc23)c1	0.0
Cc1cc(C)cc(S(=O)(=O)c2c(C(=O)NC(C)C(N)=O)[nH]c3ccc(Br)cc23)c1 (centres undefined)	1.0
Cc1cc(C)cc(S(=O)(=O)c2c(C(=O)NC(C)CC(N)=O)[nH]c3ccc(Br)cc23)c1 (centres undefined)	0.0
Cc1cc(C)cc(S(=O)(=O)c2c(C(=O)NCCS(N)(=O)=O)[nH]c3ccc(Cl)cc23)c1	1.0
Cc1cc(C)cc(S(=O)(=O)c2c(C(=O)NC(C)CC(N)=O)[nH]c3ccc(Cl)c(F)c23)c1 (centres undefined)	0.0
Cc1cc(C)cc(S(=O)(=O)c2c(C(N)=O)[nH]c3ccc(Cl)c(F)c23)c1	1.0
Cc1cc(C)cc(S(=O)(=O)c2c(C(=O)NC(C)CS(N)(=O)=O)[nH]c3ccc(Cl)cc23)c1 (centres undefined)	1.0

###

# target-under-test: Human immunodeficiency virus type 1 reverse transcriptase (Human immunodeficiency virus 1, UniProt Q72547, L100I)
# procedure-summary: Inhibition of HIV1 reverse transcriptase p66/p51 L100I mutant
# test-context: read-out: IC50
pIC50: −log10 of the molar value.
// label = yes if pIC50 is not less than 7, otherwise no

compound	category
Cc1cc(C)cc(S(=O)(=O)c2c(C(=O)NC(C)CC(N)=O)[nH]c3ccc([N+](=O)[O-])cc23)c1 (stereo not drawn)	no
Cc1cc(C)cc(S(=O)(=O)c2c(C(=O)NCCC(N)=O)[nH]c3ccc(Br)cc23)c1	no
Cc1cc(C)cc(S(=O)(=O)c2c(C(=O)NCC(N)=O)[nH]c3ccc([N+](=O)[O-])cc23)c1	no
Cc1cc(C)cc(S(=O)(=O)c2c(C(N)=O)[nH]c3ccc(Cl)cc23)c1	yes
Cc1cc(C)cc(S(=O)(=O)c2c(C(=O)NCCS(N)(=O)=O)[nH]c3ccc([N+](=O)[O-])cc23)c1	no
